Where do these numbers come from? They come from paper PMC6684654.

Target: T1, New Delhi metallo-β-lactamase-1 (NDM-1), without signal peptide, amino-terminal histidine tag (RED-tris-NTA second-generation dye on the His-tag (in the MST assay))
T1 construct: NDM-1 with the signal peptide deleted; also called apo-NDM-1; purified NDM-1; source: E. coli BL21 (DE3), pET30a, purified (Ni-IDA); apo form by dialysis against EDTA; not shown: His6, N-terminal, kept
T1 chain: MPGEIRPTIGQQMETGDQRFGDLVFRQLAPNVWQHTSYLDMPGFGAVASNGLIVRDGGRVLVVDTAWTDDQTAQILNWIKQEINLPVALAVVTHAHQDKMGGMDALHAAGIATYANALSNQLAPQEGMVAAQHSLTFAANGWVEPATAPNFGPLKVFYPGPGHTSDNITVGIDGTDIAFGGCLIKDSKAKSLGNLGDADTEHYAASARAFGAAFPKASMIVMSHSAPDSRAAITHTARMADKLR
Assay: enzyme inhibition kinetics; 1 nM purified NDM-1 with 10 μM ZnSO4, pre-incubated 20 min at 30 °C with thanatin; imipenem 100-1600 μM; initial rates fitted to the competitive inhibition model; 50 mM HEPES, 0.05% Tween-20
Settings: both partners purified
Bridge positions count the residues as written; N and C are the ends. Ends that are not written are not given here.
READOUT KIND: Ki (nM)
API: value field is a number in nM; no unit string.

Ask: Consider the binder GSKKPVPIIYCNRRTGKCQRM (disulfide 11-18, thanatin, inducible 21-residue insect peptide; source: synthetic peptide (solid-phase, Fmoc), purified by reverse-phase HPLC to over 98%) [Thanatin] and give its measured Ki.
Result: 2840
